Molecular target: LpxC enzyme (Escherichia coli, UniProt P0A725)
Sequence (P0A725 whole entry, species assumed): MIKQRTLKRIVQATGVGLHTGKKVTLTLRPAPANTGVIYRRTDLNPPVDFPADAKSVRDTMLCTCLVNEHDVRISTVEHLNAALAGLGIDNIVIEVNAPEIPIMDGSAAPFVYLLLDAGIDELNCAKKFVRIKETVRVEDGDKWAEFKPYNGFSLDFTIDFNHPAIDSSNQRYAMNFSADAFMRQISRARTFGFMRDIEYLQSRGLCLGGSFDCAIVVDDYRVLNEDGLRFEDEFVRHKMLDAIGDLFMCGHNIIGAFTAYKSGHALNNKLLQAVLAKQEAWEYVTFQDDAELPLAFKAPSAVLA
Assay: standard LpxC enzyme assay (RapidFire high-throughput mass spectrometry)
Format: biochemical
Settings: LpxC inhibitory activity; read-out: IC50 rating
propertyLabel: IC50

These recorded examples may help you get a feel for the data.
compound: CC1(CC(=O)N2CCCC(c3ccc(C#Cc4ccccc4)cc3)C2)NC(=O)NC1=O (stereo not shown)
dataValue: 250 to 1000 nM

compound: CC1(CC(=O)N2CCC(c3ccc(-c4ccccc4)cc3)CC2)NC(=O)NC1=O (stereo not shown)
dataValue: > 5000 nM

compound: CC1(CC(=O)N2CCC(c3ccc(C#Cc4ccccc4)cc3)CC2)NC(=O)NC1=O (stereo not shown)
dataValue: 250 to 1000 nM

compound: CC1(CC(=O)N2CCN(c3ccc(C#Cc4ccccc4)cc3)CC2)NC(=O)NC1=O (stereo not shown)
dataValue: 250 to 1000 nM

compound: CCc1ccc(C2CCN(C(=O)CC3(C)NC(=O)NC3=O)CC2)cc1 (stereo not shown)
dataValue: > 5000 nM

compound: CC1(CNC(=O)c2ccc(C#Cc3ccccc3)cc2)NC(=O)NC1=O (stereo not shown)
dataValue: > 5000 nM

Here is the next item to consider.
Report IC50 for C[C@@H](NC(=O)CC1(C)NC(=O)NC1=O)c1ccc(C#Cc2ccccc2)cc1 (stereo partly shown)
> 5000 nM
